I'd appreciate it if you could supply z-score values for the items below.
Assay: Components of the Cytosolic LPS Sensing Pathway: Gene Identification via Genome-wide siRNA Screen;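 further: robust z of the log signal after scaling to non-targeting control siRNA wells of the plate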
Details: RAW264.7 macrophages, IL-1a HTRF, actives lie on both sides, screened at 100 nM (by protocol), cells primed 5 h with Pam3CSK4 first
Out of some 53,000 sequences screened, about 3,700 (7%) were called active. The full list was thinned out, with actives kept by preference.
# output: bare number, no unit

// field: z-score; key: CCCACUCCUUCUAAAAGUUTT against Cyp3a13 ; value = -0.909

Form field z-score, entry GGCCAUUGCCUCUUCUACUTT against Plekha4 : -0.225

# sequence GGAGGAGUUCCAGAUCCACTT against Pald1 ; its z-score = -0.356

Entry GGUUACUCCUUUUUCAAUGTT against Elf5 — recorded z-score = -0.636

Noted for GCUGGAAUGCAAGGGCUUCTT against Gchfr : its z-score reads 1.45

// recorded z-score for CCUCUGUUAUGGUAAUUCUTT against Olfr1323 : -0.371

Reported z-score of GCCUCGAUUGGCCACAUUUTT against Atp5l : 4.61

Memo: AGAAGAUACCGAUCAAGCGTT against Nsmce3 , reported z-score: 0.049

Measured z-score, GGGCUUUCCCAGUUCCUAATT against Bmp6 : 2.04

z-score in this record for GGUUUCAAACUCUUGUAAUTT against Pgrmc1 : -0.139

Recorded z-score (sequence GGAGACAUGCAAUGAACUUTT against Ica1l ): 1.02

Reported z-score ( GCCUAUCUUGUCACCACUGTT against Tagln2 ) = -0.276
